# Test system: PCDH-blank expressing cells (U87)
# test name: MTT inhibition of glioblastoma cell proliferation, blank reference cells
# Assay type: cell-based
# condition details: Homo sapiens, U-87 MG, 72 hours, read-out: Inhibitory activities (IC50, μM) of tested compounds on cells
Please use TRUE for IC50 under 9 µM and FALSE for everything else, ties included.

Take a look at these entries with their results.
- chemical structure: "Cn1cc2cc(C(F)(F)c3nnc4ccc(-c5ccc(NC(=O)C6CC6)c(F)c5)nn34)c(F)cc2n1"
  class name: "TRUE"
- chemical structure: "CC(C)n1cc(-c2ccc3nnc(C(F)(F)c4cc5cn(C)nc5cc4F)n3n2)cn1"
  class name: "FALSE"
- chemical structure: "Nc1nc2cc(F)c(Cc3nnc4ccc(-c5cnn(C6CC6)c5)nn34)cc2s1"
  class name: "FALSE"

QUERY: Hello, I'm reviewing records and need to know if IC50 of Cn1cc2cc(C(F)(F)c3nnc4ccc(-c5cnn(C6CC6)c5)nn34)c(F)cc2n1 is below 9 µM. Could you check?
RESULT: TRUE

QUERY: Does C[C@@H](Oc1cc(-c2cnn(C3CCNCC3)c2)cnc1N)c1c(Cl)ccc(F)c1Cl have IC50 strictly under 9 µM?
RESULT: TRUE

QUERY: Is it true that IC50 reported for CNC(=O)c1c(F)cc(-c2ccc3nnc(C(F)(F)c4cc5cn(C)nc5cc4F)n3n2)cc1F is less than 9 µM?
RESULT: TRUE

QUERY: Determine if Cn1cc(-c2ccc3nnc(C(F)(F)c4cc5cn(C)nc5cc4F)n3n2)cn1 shows IC50 strictly lower than 9 µM.
RESULT: TRUE

QUERY: API: query returns whether the compound falls strictly under 9 µM in IC50. Query: Cn1cc2cc(C(F)(F)c3nnc4ccc(-c5cnn(C6CC6)c5)cn34)c(F)cc2n1
RESULT: FALSE
